Exercise: for every item that follows, state its recorded TGI.
Test system: NCI-H23 lung
test name: NCI tumour cell line growth inhibition, 48 h

Missing value: TGI, NCI-H23 lung, entry `COC(=O)c1c(C)[nH]c2c1C(=O)C(=O)c1nc(C)c(C)nc1-2` . Fill in?
36.9 µM

Missing value: TGI, NCI-H23 lung, entry `Cc1cc(S(=O)(=O)Nc2nnc3c4ccccc4cnn23)c(S)cc1Cl` . Fill in?
> 100 µM

Missing value: TGI, NCI-H23 lung, entry `Cc1ccc(S(=O)(=O)NC(=O)Nc2cccc(S(N)(=O)=O)c2)cc1` . Fill in?
> 100 µM

Missing value: TGI, NCI-H23 lung, entry `O=C(c1ccco1)N(C(=S)N1CCN(c2ccccc2)CC1)C1CCCCC1` . Fill in?
> 100 µM

Missing value: TGI, NCI-H23 lung, entry `CC1=C(/C=C/C(=O)CC(=O)/C=C/C2=C(C)CCCC2(C)C)C(C)(C)CCC1` . Fill in?
> 100 µM

Missing value: TGI, NCI-H23 lung, entry `c1ccc2c(c1)nn1c3ccc4nonc4c3[n-][n+]21` . Fill in?
> 100 µM

Missing value: TGI, NCI-H23 lung, entry `O=C(O)[C@@H]1OCCOCCO[C@@H](C(=O)O)[C@H](C(=O)O)OCCOCCO[C@H]1C(=O)O` . Fill in?
> 100 µM

Missing value: TGI, NCI-H23 lung, entry C=C(Cl)/C(=C\Cl)CCC(Cl)C(C)C (stereo not given) . Fill in?
> 100 µM

Missing value: TGI, NCI-H23 lung, entry `N#Cc1c(-c2ccccc2)cc(-c2ccc(N)cc2)[nH]c1=O` . Fill in?
> 100 µM

Missing value: TGI, NCI-H23 lung, entry `Cc1cc(C)c2c(n1)S(=O)(=O)N(CCCN1CCN(c3cccc(Cl)c3)CC1)/C(=C(\O)c1ccccc1)C2=O` . Fill in?
89.1 µM

====

Tested on: UO-31 renal
test name: NCI tumour cell line growth inhibition, 48 h
*1 amine or outer side, *2 acyl side, *3 side chain or, on linkers, in order; H or OH if unused. Where a SMILES comes first, the peptide text is derived from it. [ ]: non-standard residue; d: D form. The star is where a group is joined. ξ: configuration not given here. NMeY = CN[C@@H](Cc1ccc(O)cc1)C(=O)O; Ethylenediamine = C(CN[*:2])N[*:1]; ξNMeL = CNC(CC(C)C)C(=O)O; Cbz = O=C(OCc1ccccc1)*; Lac = C[C@H](O)C(=O)O; ξA = CC(N)C(=O)O
Returns 1.0 if the recorded TGI is greater than or equal to 10 µM, and 0.0 otherwise.

Given `CN(C)CCNCc1ccc2c(-c3ccccc3)nc3cc(Cl)c(Cl)cc3n12` , state whether its TGI is at least 10 µM.
1.0

Given COc1ccc(C(C)c2cc(OC)c(OC)c(OC)c2)cc1 (centres undefined) , state whether its TGI is at least 10 µM.
1.0

Given `[N-]=[N+]=NCCCn1c2c(c3ccc([N+](=O)[O-])cc3c1=O)C(=O)c1cc3c(cc1-2)OCO3` , state whether its TGI is at least 10 µM.
0.0

Given O=C(O)C1OC1C(=O)O (centres undefined) , state whether its TGI is at least 10 µM.
1.0

Given `Cc1c[nH]c(C(=O)O)c1-c1cccn1-c1ccc(Cl)cc1[N+](=O)[O-]` , state whether its TGI is at least 10 µM.
1.0

Given `O=C(O)Cc1ccc(Nc2nc3ccccc3nc2C(=O)O)cc1` , state whether its TGI is at least 10 µM.
1.0

Given `Cn1nc2ccc([N+](=O)[O-])cc2[n+]1[O-]` , state whether its TGI is at least 10 µM.
1.0

Given `COc1cc(Cl)cc(-c2nn(-c3cccc(NC(=O)Nc4cccc(C(F)(F)F)c4)c3)cc2-c2ccncc2)c1` , state whether its TGI is at least 10 µM.
0.0

Given N#CC1=C(N)NC(=S)NC1c1ccc(-c2ccc(-c3nc4ccccc4o3)cc2)s1 (centres undefined) , state whether its TGI is at least 10 µM.
1.0

Given `COc1ccc(NC(=S)NNC(=O)c2nsc3ccccc23)cc1` , state whether its TGI is at least 10 µM.
1.0

Given CC1C2CCC3C(O)C2(CC(O)C2(O)C1CC(O)C2(C)C)CC3(C)O (centres undefined) , state whether its TGI is at least 10 µM.
1.0

Given `O=C(/C=C/c1ccc(OCc2ccccc2)cc1)NCc1ccc(C(=O)NCCc2c[nH]c3ccccc23)cc1` , state whether its TGI is at least 10 µM.
1.0

Given `COc1ccc(/C(C)=N/NC(=O)CSc2nc3ccccc3c(=O)n2CCc2ccc(S(N)(=O)=O)cc2)cc1` , state whether its TGI is at least 10 µM.
0.0

Given `NCCCCCNc1noc(Cc2c[nH]c3cc(Br)ccc23)n1` , state whether its TGI is at least 10 µM.
1.0

Given NC1C=NNC1=O (centres undefined) , state whether its TGI is at least 10 µM.
1.0

Given `CC[C@@]1(OC(=O)CN(C)C)C(=O)OCc2c1cc1n(c2=O)Cc2cc3c(N)cccc3nc2-1` , state whether its TGI is at least 10 µM.
0.0

Given `CCOC(=O)C(=O)Nc1cc(Cl)c(Cl)cc1Cl` , state whether its TGI is at least 10 µM.
1.0

Given `c1ccc(CN2CCc3[nH]c4ccccc4c3C2)cc1` , state whether its TGI is at least 10 µM.
1.0

Given COc1ccc(C[C@@H](C(=O)NCCNC(=O)C(CC(C)C)N(C)C(=O)[C@@H]2CCCN2C(=O)[C@H](C)O)N(C)C(=O)[C@@H]2CCCN2C(=O)[C@H](CC(C)C)NC(=O)C(C)NC(=O)OCc2ccccc2)cc1 (some centres undefined) (Cbz-[ξA]LP[NMeY](Me)-{Ethylenediamine-ξNMeL-Pro-Lac}) , state whether its TGI is at least 10 µM.
1.0

Given C=C(Cl)/C(=C\Cl)CCC(Cl)C(C)C (centres undefined) , state whether its TGI is at least 10 µM.
1.0

Given `Cc1cc(-c2nnc(/C=C/c3ccc4c(c3)OCO4)o2)n[nH]1` , state whether its TGI is at least 10 µM.
1.0

Given `CS(=O)(=O)Nc1cc(-c2ccc3ncnc(Nc4ccc(F)c(Cl)c4)c3c2)cnc1Cl` , state whether its TGI is at least 10 µM.
0.0

Given Nc1c(C(=O)Nc2ccccn2)sc2nc3c(cc12)C(O)CCC3 (centres undefined) , state whether its TGI is at least 10 µM.
1.0

Given `Cc1ccc(S(=O)(=O)NC(=O)NCCc2ccccc2)cc1` , state whether its TGI is at least 10 µM.
1.0

Given COc1ccc(C2C(C#N)=C(S)N(C3OC(COC(C)=O)C(OC(C)=O)C(OC(C)=O)C3OC(C)=O)C(C)=C2C(C)=O)cc1 (centres undefined) , state whether its TGI is at least 10 µM.
1.0

Given CO[C@@H]1CCN(c2nccc(Nc3cc4c(C(C)C)ccc(N5CC(CS(C)(=O)=O)[C@H]5C)c4cn3)n2)C[C@@H]1F (some centres undefined) , state whether its TGI is at least 10 µM.
1.0

Given `CNC(=O)N(CCC#N)CCN(C(=O)N(C)C)c1ccccc1` , state whether its TGI is at least 10 µM.
1.0

Given `Nc1c(OCC(=O)O)ccc2cc(S(=O)(=O)O)ccc12` , state whether its TGI is at least 10 µM.
1.0

Given `O=S(=O)(NCCNc1nccc(-c2c(-c3ccc(F)c(O)c3)nc3sccn23)n1)c1ccc(Cl)cc1` , state whether its TGI is at least 10 µM.
1.0

Given O=[N+]([O-])C1=Cc2cc(Cl)ccc2OC1c1cccc2ccccc12 (centres undefined) , state whether its TGI is at least 10 µM.
0.0

Given `COc1ccc(C(=O)O[C@H]2CC[C@@]3(C)[C@@H]4CC[C@H]5[C@]6(O)C[C@H](O)[C@@]7(O)[C@@H](CN8C[C@@H](C)CC[C@H]8[C@@]7(C)O)[C@]6(O)C[C@@]53OC24O)cc1OC` , state whether its TGI is at least 10 µM.
1.0

Given `c1ccc2c(c1)nc1n2CSCC1` , state whether its TGI is at least 10 µM.
1.0

Given `O=C1/C(=C/c2ccc3c(c2)OCCO3)CCC/C1=C\c1ccc2c(c1)OCCO2` , state whether its TGI is at least 10 µM.
1.0

Given `C[C@@H]1[C@H](O)CC2=C(CC[C@@H](O)C2(C)C)[C@@]1(CO)CCc1ccoc1` , state whether its TGI is at least 10 µM.
1.0

Given `O=C(CSCC(=O)N/N=C/c1ccccc1O)N/N=C\c1ccccc1O` , state whether its TGI is at least 10 µM.
1.0

Given CN1CC(c2ccccc2)C(O)(C2(c3ccccc3)CN(C)CC(c3ccccc3)C2=O)C(c2ccccc2)C1 (centres undefined) , state whether its TGI is at least 10 µM.
1.0

Given `O=C1c2c(Br)sc(Br)c2[C@@H](Cl)[C@H]1Cl` , state whether its TGI is at least 10 µM.
1.0

Given `NCCCOc1cc2ccccc2cc1C(=O)Nc1ccc(Cl)cc1OC(=O)c1cc2ccccc2cc1OCCCN` , state whether its TGI is at least 10 µM.
0.0

Given `O=C(Nn1c(-c2cccs2)nc2ccc(I)cc2c1=O)c1ccccc1` , state whether its TGI is at least 10 µM.
1.0
